This section presents molecules with their documented inhibition values.
- testedOn: Acetylcholinesterase (Electrophorus electricus) (UniProt O42275)
- Sequence (O42275 24-633 limits assumed): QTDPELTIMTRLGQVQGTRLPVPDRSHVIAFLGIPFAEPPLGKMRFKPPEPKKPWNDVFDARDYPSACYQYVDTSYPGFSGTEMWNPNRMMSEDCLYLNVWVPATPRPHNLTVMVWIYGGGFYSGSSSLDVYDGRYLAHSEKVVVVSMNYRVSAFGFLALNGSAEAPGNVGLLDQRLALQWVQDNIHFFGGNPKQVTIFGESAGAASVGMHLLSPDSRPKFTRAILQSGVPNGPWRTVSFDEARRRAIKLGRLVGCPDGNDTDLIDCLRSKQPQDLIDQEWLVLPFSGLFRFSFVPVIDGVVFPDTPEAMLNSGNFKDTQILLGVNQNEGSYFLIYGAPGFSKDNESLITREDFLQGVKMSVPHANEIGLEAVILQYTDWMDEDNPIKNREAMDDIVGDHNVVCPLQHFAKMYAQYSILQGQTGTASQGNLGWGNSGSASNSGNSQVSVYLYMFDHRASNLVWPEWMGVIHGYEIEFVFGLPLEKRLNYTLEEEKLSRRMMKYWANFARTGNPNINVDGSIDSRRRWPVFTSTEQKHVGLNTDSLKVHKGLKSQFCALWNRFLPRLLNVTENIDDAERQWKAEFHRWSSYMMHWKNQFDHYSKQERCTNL
- studyConditions: at 2 mg/mL
- Description: Inhibition of electric eel AChE at 2 mg/ml by Ellman's method
Note: unit % is implicit; provide only the numeric part.

Example cases with answers are listed next.
CN1[C@@H]2CC[C@H]1C[C@@H](OC(=O)[C@H](CO)c1ccccc1)C2 :: 15.5
CO[C@H](C(=O)[C@@H](O)[C@@H](C)O)[C@@H]1Cc2cc3cc(O[C@H]4C[C@@H](O[C@H]5C[C@@H](O)[C@H](O)[C@@H](C)O5)[C@@H](O)[C@@H](C)O4)c(C)c(O)c3c(O)c2C(=O)[C@H]1O[C@H]1C[C@@H](O[C@H]2C[C@@H](O[C@H]3C[C@](C)(O)[C@H](O)[C@@H](C)O3)[C@H](O)[C@@H](C)O2)[C@H](O)[C@@H](O)O1 :: -3.51
C[C@H]1CCC/C=C/[C@@H]2C[C@H](O)C[C@H]2[C@H](O)/C=C/C(=O)O1 :: -3.21
O=C(/C=C/c1ccc(O)c(O)c1)c1ccc(O)cc1O :: 10.1
C[C@@]1(CO)[C@H](O)CC[C@@]2(C)[C@H]1CC[C@H]1C[C@@H]3C[C@@]12CC[C@]3(O)CO :: 8.45
C[C@H]1C(=O)O[C@@H]2CCN3CC=C(COC(=O)[C@](C)(O)[C@]1(C)O)[C@H]23 :: 19.5
C=C(C)[C@@H]1CC[C@]2(CO)CC[C@]3(C)[C@H](CC[C@@H]4[C@@]5(C)CC[C@H](O)C(C)(C)[C@@H]5CC[C@]43C)[C@@H]12 :: 7.09
Cc1c2c(c(O)c3c(O)cccc13)C(=O)O[C@H]2[C@@H]1[C@H](O)C(=O)C(C(N)=O)=C(O)[C@H]1N(C)C :: 16.9
CCCCCCCCCCCCCC[C@@H](O)[C@@H](O)[C@H](CO)NC(C)=O :: 0.15
C[C@@H]1C(=O)O[C@H]2C[C@@]34[C@H]5C[C@@H](C(C)(C)C)[C@]36[C@@H](OC(=O)[C@@H]6O)O[C@@]4(C(=O)O5)[C@]21O :: 6.97

Entry `C/C=C1/C[C@@H](C)[C@@](C)(O)C(=O)OCC2=CCN3CC[C@@H](OC1=O)[C@@H]23` , tested on Acetylcholinesterase (Electrophorus electricus) (UniProt O42275), has a reported inhibition of 7.46

Entry `COc1cc([C@@H]2c3cc4c(cc3[C@H](O)[C@H]3COC(=O)[C@H]23)OCO4)cc(OC)c1OC` , tested on Acetylcholinesterase (Electrophorus electricus) (UniProt O42275), has a reported inhibition of 8.74

Entry `Cc1coc2c1C(=O)C(=O)c1c-2ccc2c1CCCC2(C)C` , tested on Acetylcholinesterase (Electrophorus electricus) (UniProt O42275), has a reported inhibition of 13.1
